test: NCI Yeast Anticancer Drug Screen. Data for the mec2-1 strain (AID 157); conditions: S. cerevisiae mec2-1 strain, at 50.0 µM
About 79,000 compounds went through this panel and 15% of them were active in at least one assay; those are over-represented in the sample as a whole. Active and inactive are the calls of the source. No stated cut-off is given here; in the data, active means growth inhibition above about 70%; inactive means the rest.
Result category, one only: active, inactive

Could you kindly confirm the outcome this assay logged for `C[CH2][Ge]([CH2]C)[CH2]C.C[CH2][Ge]([CH2]C)[CH2]C.C[CH2][Ge]([CH2]C)[S][Ge]([CH2]C)[CH2]C` ?
inactive

Can you check `C/C(=N/C(=O)NN)c1ccc(Cl)cc1` next?
inactive

Can you check `COc1cc([C@H]2c3[nH]c4ccccc4c3C[C@H]3COC(=O)N32)cc(OC)c1O` next?
inactive

Can you check `CC(=O)c1c(C)c(C)c(=O)n(C/C=C(\C)CCC=C(C)C)c1O` next?
active

Can you check CC(=O)OCC1OC(OC(C)=O)C(NC(=O)CN(Cc2ccccc2)S(C)(=O)=O)C(OC(C)=O)C1OC(C)=O (stereo not given) next?
inactive

----------
Test: NCI Yeast Anticancer Drug Screen. Data for the mec2-1 strain (AID 157)
Conditions: S. cerevisiae mec2-1 strain, at 50.0 µM, active compounds read high
Protocol: Growth inhibition of yeast strains with defined genetic alterations is measured as a screen for potential anti-cancer activity. Selected strains with alterations in DNA damage repair or cell cycle control were exposed to compounds and growth inhibition was measured relative to vehicle treated controls. The strain used in this assay is mec2-1
The panel holds about 79,000 compounds, 15% with a hit somewhere; the sample as a whole holds those more often.
Observed property: growth inhibition (%)
Dear colleague, please return just the value in %, with no unit written.

Fill in: growth inhibition of OC1c2ccccc2-c2c(Cl)cc(Cl)cc21 (stereo not given) is ___
6.1

Can you check CN1C(C(=O)O)CCC1C(=O)O (stereo not given) next?
7.6

Can you check `O=C1c2cc([N+](=O)[O-])sc2C(=O)c2ccsc21` next?
89.3

Can you check `CCCCCCCCCCCOC(=O)CCl` next?
-13

Can you check COC(=O)C1OC(O[C@H]2CC[C@]3(C)[C@H]4CC=C5[C@@H]6CC(C)(C)CC[C@]6(C(=O)OC)[C@H](O)C[C@@]5(C)[C@]4(C)CC[C@H]3C2(C)C)C(O)C(O)C1O (stereo not given in full) next?
37.6

Can you check `CC(C)(C)C([O-])=C1C(=O)c2ccccc2C1=O.CC(C)(C)C([O-])=C1C(=O)c2ccccc2C1=O.CC[O-].CC[O-].[Ti+4]` next?
47.1

Can you check `O=c1c2ccccc2c2cc3nc4ccc([N+](=O)[O-])cc4c(=O)n3c3cccc1c23` next?
-2.65

Can you check Cc1cc2nc(N3CCCCC3)n(C3OC(CO)C(O)C3O)c2cc1C (stereo not given) next?
10.2

Can you check `COc1ccccc1NC(=O)CC(=O)n1nc(C)c(N=Nc2ccccc2C(=O)O)c1C` next?
-25.3

Can you check `CCOc1ccc(OCC)c(N)c1` next?
2.1

----------
Kindly state growth inhibition for each of the entries shown.
experiment: NCI Yeast Anticancer Drug Screen. Data for the rad50 strain (AID 155);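 further: 0% = growth of vehicle-only cultures of the same strain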; settings: S. cerevisiae rad50 strain growth inhibition; at 50.0 µM; active compounds read high
The panel holds about 79,000 compounds, 15% with a hit somewhere; the sample as a whole holds those more often.
Dear colleague, please return just the value in %, with no unit written.

Fill in: growth inhibition of `OCCN(CCO)c1ccc2c(c1)Cc1cc(Br)ccc1-2` is ___
1.25

Can you check `CCOC(=O)CNC(=O)NC` next?
1.25

Can you check CCN(CC)C1CCC(C2c3cc4c(cc3OC(N3CCOCC3)C2C)OCO4)CC1 (stereo unspecified) next?
-11.1

Can you check COc1cc(C2c3cc4c(cc3OC(N3CCCCC3)C2C)OCO4)cc(OC)c1O (stereo unspecified) next?
1.45

Can you check `C[n+]1c(-c2ccc(/C=N/NC(=O)c3cc(O)c(C(=O)N/N=C/c4ccc(-c5cn6ccccc6[n+]5C)cc4)cc3O)cc2)cn2ccccc21` next?
-31

Can you check `O=C1CN(c2ccccc2)C(=O)CN1/N=C/c1ccc(O)c(O)c1` next?
-35.2

Can you check CC(C)(C)C1CCC2c3c([nH]c4ccccc34)C3C(=O)N(c4ccc(Br)cc4)C(=O)C3C2C1 (stereo unspecified) next?
12.8

Can you check `Oc1ccc(N=Nc2ccccc2)c(O)c1` next?
54

Can you check O=C(NC(Cc1ccccc1)P(=O)(O)c1ccccc1)OCc1ccccc1 (stereo unspecified) next?
-8.45

Can you check `CCCCNC(=S)N/N=C/c1ccc(OC)cc1` next?
-10.8

Can you check `O=C(Nc1cccc([N+](=O)[O-])c1)c1ccccc1Cl` next?
-0.65
